Assay: NCI Yeast Anticancer Drug Screen. Data for the rad50 strain (AID 155);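 further: 0% = growth of vehicle-only cultures of the same strain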
Conditions: S. cerevisiae rad50 strain growth inhibition; at 50.0 µM; stronger effect = higher value
Protocol: Growth inhibition of yeast strains with defined genetic alterations is measured as a screen for potential anti-cancer activity. Selected strains with alterations in DNA damage repair or cell cycle control were exposed to compounds and growth inhibition was measured relative to vehicle treated controls. The strain used in this assay is rad50
This is part of a sample that, as a whole, favours compounds with a hit. Of some 79,000 tested, about 15% had one in any assay.
property name: growth inhibition (%)

compound	property name	result
CCCCC(SC(CC)(CC)C(N)=O)C(N)=O (centres undefined)	growth inhibition	8
Oc1c(CN2CCOCC2)cc(CN2CCOCC2)cc1CN1CCOCC1	growth inhibition	7.7
C/C(=N/Nc1ccc([N+](=O)[O-])cc1[N+](=O)[O-])C(CC(C(=O)Nc1ccccc1C)/C(C)=N\Nc1ccc([N+](=O)[O-])cc1[N+](=O)[O-])C(=O)Nc1ccccc1C (centres undefined)	growth inhibition	18.4
CCOC(=O)Sc1nccn1C	growth inhibition	8.05
N#CCCn1[nH]c(=O)c(Cl)c(Cl)c1=O	growth inhibition	6.95
CCOC(=O)/C(C#N)=C/Nc1c(C)n(C)n(-c2ccccc2)c1=O	growth inhibition	0.95
COc1ccc(NS(=O)(=O)c2ccc(N=Cc3c4ccccc4nc4ccccc34)cc2)nn1	growth inhibition	96.8
O=C(O)CC(CC(=O)O)c1ccc2c(c1)OCO2	growth inhibition	-32.6
c1ccc(C2OC3C4COC(O4)C3O2)cc1 (centres undefined)	growth inhibition	-24.7
CC(=O)OC1CC2CCCCC2CC1[N+](C)(C)C (centres undefined)	growth inhibition	2.25
O=C(O)/C=C\CCCCC(=O)O	growth inhibition	35.4
O=C(c1ccccc1)C(c1ccccc1)C1(O)C(=O)Nc2ccc(Br)cc21 (centres undefined)	growth inhibition	0.9
Cc1cc(=O)c2cc(Cc3ccc(N)cc3)ccc2[nH]1	growth inhibition	8.35
Nc1nc(NCCCc2ccccc2)c(N)c(=O)[nH]1	growth inhibition	5.1

----------
Overview of recorded growth inhibition for various compounds
experiment: NCI Yeast Anticancer Drug Screen. Data for the bub3 strain (AID 167); conditions: S. cerevisiae bub3 mutant strain, at 50.0 µM, stronger effect = higher value
Compounds without any hit were thinned out: in the full panel of roughly 79,000, 15% have a hit.
property name: growth inhibition (%)

>>> df
                                   compound      property_name  unit_descriptor  result
0        S=c1s/c(=C\c2ccccc2)c2nc3ccccc3n12  growth inhibition                %    13.9
1  CN1CCN(C2CCCc3ccccc3C2O)CC1 (stereo not given)  growth inhibition                %     1.3
2  CCOC(=O)Oc1ccc(C(=O)Oc2cc(Cl)c(Cl)cc2Cl)cc1OC  growth inhibition                %   -13.9
3  CCOC(=O)C1C(C)=CC(=O)CC1CC (stereo not given)  growth inhibition                %   -3.85
4  O=C1CCCCC1C(Nc1ccccc1)c1ccccc1 (stereo not given)  growth inhibition                %    -2.6

----------
Overview of recorded growth inhibition for various compounds
test: NCI Yeast Anticancer Drug Screen. Data for the sgs1 mgt1 strain (AID 161);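 further: 0% = growth of cultures given vehicle only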; conditions: S. cerevisiae sgs1 mgt1 strain, at 50.0 µM, stronger effect = higher value
This is part of a sample that, as a whole, favours compounds with a hit. Of some 79,000 tested, about 15% had one in any assay.
property name: growth inhibition (%)

>>> print(df.to_string())
                                   compound      property_name  result
0  O=C(CCCC(=O)N/N=C/c1cc(Cl)ccc1[N+](=O)[O-])N/N=C\c1cc(Cl)ccc1[N+](=O)[O-]  growth inhibition    11.1
1       C=CCN1C=CC=C/C1=C\C=C(/C#N)C(=O)OCC  growth inhibition     7.8
2  C[C@]12CC[C@@H]3c4cc(C=O)c(OCc5ccccc5)cc4CC[C@H]3[C@@H]1CCC2OCc1ccccc1 (stereo not given in full)  growth inhibition    0.45
3  CCOC(=O)C1CN(C2CCCCC2)CCC1=O (stereo not given)  growth inhibition    4.85
4            CCOC(=O)CCCNc1cc(OC)cc2cccnc12  growth inhibition    -2.6
5  COc1ccc(CCNc2ncc([N+](=O)[O-])cc2N)cc1OC  growth inhibition   -10.8
6  CN(C)C1Cc2ccccc2C1OC(=O)c1ccccc1 (stereo not given)  growth inhibition      11
7  Cc1ccc(Nc2nc(C)c(C(=O)C/C(=N/NC(N)=S)C(=O)Nc3cc(Cl)cc(Cl)c3)s2)cc1  growth inhibition    15.6
8         COc1cc2c3c(c1)[nH]c(=S)n3C(=O)CS2  growth inhibition   -57.4
9  C=C1C(=O)O[C@H]2C3OC3(C)CC/C=C(/C(=O)OC)[C@@H](OC(C)=O)[C@H](OC(=O)C3(C)OC3C)[C@H]12 (stereo not given in full)  growth inhibition    13.5

----------
test: NCI Yeast Anticancer Drug Screen. Data for the mec2-1 strain (AID 157); conditions: S. cerevisiae mec2-1 strain, at 50.0 µM, stronger effect = higher value
About 79,000 compounds went through this panel and 15% of them were active in at least one assay; those are over-represented in the sample as a whole.
Overview of recorded growth inhibition for various compounds
property name: growth inhibition (%)

>>> df
                                    compound  unit_descriptor  result
 0  Cc1cc2c(C)nn(Cc3ccc(Cl)cc3Cl)c2c(C#N)c1C                %   -14.8
 1  C=CCOC(=O)NC(Cc1ccc(O)cc1)C(=O)O (stereo unspecified)                %   -4.85
 2  CC1=CC(=O)C2C(C)(C)CCCC2(C)C1(O)CCc1ccoc1 (stereo unspecified)                %      88
 3         COC(=O)c1cc(Cl)ccc1NC(=O)C1CCCCC1                %    15.8
 4                        Cc1noc2c1C(=O)CCC2                %   -5.45
 5                        N#CNc1nc(N)cc(N)n1                %    9.35
 6  CCOC(=O)C1Oc2ccccc2OC1C (stereo unspecified)                %   -15.7
 7  CCCC1OC1(CC)C(=O)OCC(CC)(COC(=O)C1(CC)OC1CCC)COC(=O)C1(CC)OC1CCC (stereo unspecified)                %   -19.5
 8       CCOC(=O)C(C(=O)OCC)c1cnc2ccccc2c1Cl                %   -9.45
 9    Cc1cccc(-c2nc3sc(-c4cccc(C)n4)nc3s2)n1                %    3.05
10  CC1(C)C(c2ccccc2)C12CCC1(C2=O)C(c2ccccc2)C1(C)C (stereo unspecified)                %   -27.8

----------
assay: NCI Yeast Anticancer Drug Screen. Data for the rad50 strain (AID 155);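 further: 0% = growth of vehicle-only cultures of the same strain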; settings: S. cerevisiae rad50 strain growth inhibition; at 50.0 µM; stronger effect = higher value
The panel holds about 79,000 compounds, 15% with a hit somewhere; the sample as a whole holds those more often.
property name: growth inhibition (%)

                                    compound  result
 0  CN(C(=O)C12C3C4C5C3C1(C(=O)O)C5C42)C(C)(C)C (centres undefined)    35.4
 1  CCOC(=O)C1=C(C)NC(C)=C(C(=O)OCC)C1c1c(C)noc1C    19.6
 2  Cc1ccc(-c2cc(-c3ccco3)c(C#N)c(=O)[nH]2)cc1    13.5
 3  O=C(O)C1CCC2SC(F)(F)C(F)(F)C2C1 (centres undefined)   -4.05
 4  CC(=O)Nc1ccc(/C=c2\sc3nnc(CCC(=O)Nc4ccccc4Cl)n3c2=O)cc1   -16.4
 5  CN1CCN(C(=S)N(C(=O)c2ccc(Cl)cc2)c2ccccc2)CC1   -49.2
 6  CC(C)/C=N\N1C(N)=C(C#N)C(C#N)(C#N)C1C(C)C (centres undefined)   -0.65
 7         OC1CCCCC12CC2 (centres undefined)    3.85
 8  Oc1ccc(C2SCc3nc4ccccc4n32)cc1 (centres undefined)   -7.85
 9  CCCCCCC(O)C/C=C\CCCCCCCCO (centres undefined)    11.9
10      NCCN.O=C([O-])CN1CCOCC1.[OH-].[Pt+4]     8.9
11  N#CC(CCc1ccc([N+](=O)[O-])cc1)(CCc1ccc([N+](=O)[O-])cc1)C(N)=O    38.4
12  COC(=O)C(CC1=C(O)Nc2ccccc2N1)/C(=N/NC(N)=O)C(=O)Nc1ccccc1C (centres undefined)    11.4
13           CCC(=O)Oc1c(C(C)C)cccc1C(C)(C)C     -22
14  CC(CN1CCCC1)OC(=O)C(c1ccccc1)C1CCCC1 (centres undefined)    6.15
15  C=C1CC(C)(C)CN(Cc2ccc([N+](=O)[O-])cc2)C(C(=O)OC)=C1C(=O)OC    20.4
16           CNC(=S)SC1=NS(=O)(=O)c2ccccc2N1    -9.1
17  CC(=O)OCC1OC(n2c(-c3ccc(C)cc3)cc(-c3ccccc3)c(C#N)c2=S)C(OC(C)=O)C(OC(C)=O)C1OC(C)=O (centres undefined)    17.9
18                 c1ccc(CNn2nnc3ccccc32)cc1    16.6
19  C[C@H](CCC(=O)NCCS(=O)(=O)O)[C@H]1CC[C@H]2[C@@H]3CC[C@@H]4C[C@H](O)CC[C@]4(C)[C@H]3CC[C@]12C     2.9
20     Cc1cc(Cl)c(Cl)cc1NC(=O)c1ccc(Cl)cc1Cl    2.85
21  Cn1nc(NC(=O)c2cc(N)nn2C)cc1C(=O)Nc1ccc2cc(S(=O)(=O)O)cc(S(=O)(=O)O)c2c1   -14.1
22  CNC(CCCC1CCCCC1)C(=O)O (centres undefined)   -2.85
23  COc1ccc2c(c1)C(C)(C(N)=O)CCC2 (centres undefined)    3.25
24  O=C1c2ccccc2C(=O)c2c1ccc1c2[nH]c2ccccc21    2.15
25            Cc1ccc(NC(=O)COc2ccccc2)c(C)c1    4.35
26  CN1CCC2c3c([nH]c4ccccc34)C(C)(C)OC2C1 (centres undefined)   -11.9
27      CC(=O)c1ccc(OCc2ccccc2)cc1OCc1ccccc1       7
28                  c1ccc(-n2nnc3c2CCCC3)cc1    -3.2
29  O=C(O)c1c(Br)c(Br)c(Br)c(Br)c1C(=O)Nc1cc([N+](=O)[O-])ccc1O    14.2
30                       O=Cc1c(O)nc[nH]c1=O   -23.9
31     COc1ccc(C(=O)N/N=C/c2cccc3ccccc23)cc1      -3
32  O=[N+]([O-])c1ccc(S(=O)c2ccc([N+](=O)[O-])cc2)cc1    24.8
33  CNC(=O)OCc1c(COC(=O)NC)c(-c2cccs2)n2c1CCC2      42
34      CN(C)c1ccc(/C=C(\C#N)c2cccc(F)c2)cc1   -4.85
35  O=c1[nH]c(=O)n(C2OC(CO)C(O)C2O)cc1NN=NCc1ccccc1 (centres undefined)   -10.1
36                 CC(=O)Nc1ccc(OC(C)=O)cc1N    -8.9
37  O=C1C(c2ccccc2Cl)[C@H]2CC=C[C@H]2N1O (some centres undefined)   -26.1
38                     N#Cc1nc(-c2ccco2)oc1N   -20.8
